molecular target: Thromboxane A2 receptor (Homo sapiens, UniProt P21731); experiment: Displacement of [3H]SQ-29548 from TPbeta receptor (long isoform) expressed in COS7 cells
QUANTITY_MEASURED: IC50 (nM)

chemical_string=CCCCCNC(=O)NS(=O)(=O)c1cc([N+](=O)[O-])ccc1Nc1cccc(C)c1 experimental_value=4.43
chemical_string=Cc1ccc(Nc2ccc([N+](=O)[O-])cc2S(=O)(=O)NC(=O)NCc2ccccc2)cc1 experimental_value=1.17
chemical_string=Cc1cccc(C)c1Nc1ccc([N+](=O)[O-])cc1S(=O)(=O)NC(=O)NC(C)(C)C experimental_value=0.56
chemical_string=CCCCNC(=O)NS(=O)(=O)c1cc([N+](=O)[O-])ccc1Oc1ccc(C)cc1 experimental_value=0.7
chemical_string=Cc1ccc(Nc2ccc([N+](=O)[O-])cc2S(=O)(=O)NC(=O)NC(C)(C)C)cc1 experimental_value=0.78

[A] CCCCCNC(=O)NS(=O)(=O)c1cc([N+](=O)[O-])ccc1Nc1ccc(C)cc1
[B] CCCCCNC(=O)NS(=O)(=O)c1cc([N+](=O)[O-])ccc1Oc1ccc(C)cc1
Response body: label of entry with the larger IC50; valid values A , B . // caller expects the label of the chosen entry A
(A: 3.53 nM, B: 0.65 nM)

----------
Molecular target: Thromboxane A2 receptor (Homo sapiens)
Sequence (P21731 whole entry): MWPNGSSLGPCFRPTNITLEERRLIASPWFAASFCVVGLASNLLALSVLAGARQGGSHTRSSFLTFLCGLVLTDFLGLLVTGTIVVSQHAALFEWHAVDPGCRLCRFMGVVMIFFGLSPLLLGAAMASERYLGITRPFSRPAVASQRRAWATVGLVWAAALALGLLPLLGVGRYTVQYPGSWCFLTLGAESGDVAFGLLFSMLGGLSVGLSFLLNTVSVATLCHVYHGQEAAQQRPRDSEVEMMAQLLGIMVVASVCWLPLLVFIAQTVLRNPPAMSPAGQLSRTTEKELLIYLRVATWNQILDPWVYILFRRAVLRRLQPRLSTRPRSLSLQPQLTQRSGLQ
Experiment: Displacement of [3H]SQ-29548 from TPbeta receptor (long isoform) expressed in COS7 cells
QUANTITY_MEASURED: IC50 (nM)

chemical_string=CCCCCCCNC(=O)NS(=O)(=O)c1cc([N+](=O)[O-])ccc1NC1CCCCC1 subject_of_test="Thromboxane A2 receptor (Homo sapiens)" value_units=nM experimental_value=2.68
chemical_string=Cc1ccc(Oc2ccc([N+](=O)[O-])cc2S(=O)(=O)NC(=O)NC2CCCCC2)cc1 subject_of_test="Thromboxane A2 receptor (Homo sapiens)" value_units=nM experimental_value=0.79
chemical_string=CCCCCNC(=O)NS(=O)(=O)c1cc([N+](=O)[O-])ccc1Nc1c(C)cccc1C subject_of_test="Thromboxane A2 receptor (Homo sapiens)" value_units=nM experimental_value=1.48
chemical_string=CCCCCNC(=O)NS(=O)(=O)c1cc([N+](=O)[O-])ccc1Nc1ccc(Br)c(C)c1 subject_of_test="Thromboxane A2 receptor (Homo sapiens)" value_units=nM experimental_value=0.58
chemical_string=CCCCCCNC(=O)NS(=O)(=O)c1cc([N+](=O)[O-])ccc1Oc1ccc(C)cc1 subject_of_test="Thromboxane A2 receptor (Homo sapiens)" value_units=nM experimental_value=1.58

[I] Cc1ccc(Nc2ccc([N+](=O)[O-])cc2S(=O)(=O)NC(=O)N2CCCCC2)cc1
[II] Cc1ccc(Oc2ccc([N+](=O)[O-])cc2S(=O)(=O)NC(=O)NC(C)(C)C)cc1
[III] CCCCCCNC(=O)NS(=O)(=O)c1cc([N+](=O)[O-])ccc1NC1CCCCC1
Descending sort on IC50 required. I would appreciate it if you listed the labels in the requested order. II, III, I
(II: 1.77 nM, III: 1.07 nM, I: 0.68 nM)

----------
target: Thromboxane A2 receptor (Homo sapiens); assay: Displacement of [3H]SQ29,548 from TPalpha receptor (short isoform) expressed in COS7 cells
QUANTITY_MEASURED: IC50 (nM)

// known answers, use as guide
chemical_string=Cc1ccc(Nc2ccc([N+](=O)[O-])cc2S(=O)(=O)NC(=O)N2CCCCC2)cc1 experimental_value=0.46
chemical_string=Cc1ccc(Sc2ccc([N+](=O)[O-])cc2S(=O)(=O)NC(=O)NC(C)(C)C)cc1 experimental_value=0.77
chemical_string=CCCCCCNC(=O)NS(=O)(=O)c1cc([N+](=O)[O-])ccc1NC1CCCCC1 experimental_value=0.71

[1] CCCCNC(=O)NS(=O)(=O)c1cc([N+](=O)[O-])ccc1Oc1ccc(C)cc1
[2] CCCCCNC(=O)NS(=O)(=O)c1cc([N+](=O)[O-])ccc1Nc1ccc(C)cc1
Response body: label of entry with the larger IC50; valid values 1 , 2 . // caller expects the label of the chosen entry 2
(2: 2.65 nM, 1: 0.74 nM)

----------
Target: Thromboxane A2 receptor (Homo sapiens) (UniProt P21731)
Sequence (whole entry): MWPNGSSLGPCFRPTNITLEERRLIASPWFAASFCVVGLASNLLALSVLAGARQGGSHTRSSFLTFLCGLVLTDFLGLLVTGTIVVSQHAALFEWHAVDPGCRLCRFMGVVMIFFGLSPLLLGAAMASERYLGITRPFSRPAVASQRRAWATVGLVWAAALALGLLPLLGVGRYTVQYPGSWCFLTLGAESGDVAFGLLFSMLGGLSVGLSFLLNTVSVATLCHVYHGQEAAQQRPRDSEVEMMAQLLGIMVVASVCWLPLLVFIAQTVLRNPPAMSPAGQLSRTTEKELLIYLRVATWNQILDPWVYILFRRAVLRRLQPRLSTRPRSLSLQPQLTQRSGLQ
Test: Selectivity index, IC50 for TPalpha/IC50 for TPbeta in HEK293 cells
Assay type: functional, cell-based
QUANTITY_MEASURED: Ratio IC50

// known answers, use as guide
chemical_string=Cc1ccc(Nc2ccc([N+](=O)[O-])cc2S(=O)(=O)NC(=O)NC(C)(C)C)cc1 experimental_value=6.01
chemical_string=CCCCNC(=O)NS(=O)(=O)c1cc([N+](=O)[O-])ccc1Oc1ccc(C)cc1 experimental_value=10.6
chemical_string=Cc1ccc(Oc2ccc([N+](=O)[O-])cc2S(=O)(=O)NC(=O)NC2CCCCC2)cc1 experimental_value=8.56

[1] CCCCCNC(=O)NS(=O)(=O)c1cc([N+](=O)[O-])ccc1Nc1cccc(C)c1
[2] CCCCCCNC(=O)NS(=O)(=O)c1cc([N+](=O)[O-])ccc1Oc1ccc(C)cc1
Response body: label of entry with the larger Ratio IC50; valid values 1 , 2 . // caller expects the label of the chosen entry 2

----------
Target: Thromboxane A2 receptor (Homo sapiens, UniProt P21731)
Sequence (P21731 whole entry): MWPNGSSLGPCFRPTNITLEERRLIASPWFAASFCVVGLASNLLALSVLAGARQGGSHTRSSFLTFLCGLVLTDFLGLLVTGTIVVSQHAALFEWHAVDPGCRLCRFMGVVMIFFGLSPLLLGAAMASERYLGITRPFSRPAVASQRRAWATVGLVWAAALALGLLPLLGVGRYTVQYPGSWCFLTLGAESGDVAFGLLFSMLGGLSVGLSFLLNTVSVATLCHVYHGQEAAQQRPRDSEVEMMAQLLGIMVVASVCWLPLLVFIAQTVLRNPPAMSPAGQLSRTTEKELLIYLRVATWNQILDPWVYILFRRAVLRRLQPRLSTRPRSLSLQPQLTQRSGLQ
Test: Displacement of [3H]SQ29,548 from TPalpha receptor (short isoform) expressed in COS7 cells
QUANTITY_MEASURED: IC50 (nM)

// known answers, use as guide
chemical_string=Cc1ccc(Oc2ccc([N+](=O)[O-])cc2S(=O)(=O)NC(=O)NC(C)(C)C)cc1 experimental_value=1.26
chemical_string=CCCCCNC(=O)NS(=O)(=O)c1cc([N+](=O)[O-])ccc1Nc1ccc(Br)c(C)c1 experimental_value=1.82
chemical_string=CCCCCNC(=O)NS(=O)(=O)c1cc([N+](=O)[O-])ccc1Nc1cccc(C)c1 experimental_value=1.01
chemical_string=Cc1ccc(Oc2ccc([N+](=O)[O-])cc2S(=O)(=O)NC(=O)NC2CCCCC2)cc1 experimental_value=1.52
chemical_string=Cc1cccc(C)c1Nc1ccc([N+](=O)[O-])cc1S(=O)(=O)NC(=O)NC(C)(C)C experimental_value=0.78
chemical_string=CCCCCNC(=O)NS(=O)(=O)c1cc([N+](=O)[O-])ccc1Nc1c(C)cccc1C experimental_value=1.52

[P] CCCCCNC(=O)NS(=O)(=O)c1cc([N+](=O)[O-])ccc1Nc1cc(C)cc(C)c1
[Q] CCCCCNC(=O)NS(=O)(=O)c1cc([N+](=O)[O-])ccc1Oc1ccc(C)cc1
Please indicate which entry, P or Q , has the lower recorded IC50 value. // caller expects the label of the chosen entry P

----------
biological target: UniProtKB P21731; experiment: Displacement of [3H]SQ-29548 from TPbeta receptor (long isoform) expressed in COS7 cells at 1 nM; details: COS-7
QUANTITY_MEASURED: Activity (%)

chemical_string=CCCCCNC(=O)NS(=O)(=O)c1cc([N+](=O)[O-])ccc1Nc1ccc(Br)c(C)c1 subject_of_test="UniProtKB P21731" value_units=% experimental_value=49.9
chemical_string=CCCCCNC(=O)NS(=O)(=O)c1cc([N+](=O)[O-])ccc1Nc1c(C)cc(C)cc1C subject_of_test="UniProtKB P21731" value_units=% experimental_value=27.5
chemical_string=Cc1cccc(C)c1Nc1ccc([N+](=O)[O-])cc1S(=O)(=O)NC(=O)NC(C)(C)C subject_of_test="UniProtKB P21731" value_units=% experimental_value=46.3
chemical_string=CCCCCNC(=O)NS(=O)(=O)c1cc([N+](=O)[O-])ccc1Nc1ccc(C)cc1C subject_of_test="UniProtKB P21731" value_units=% experimental_value=39.9
chemical_string=Cc1cc(Nc2ccc([N+](=O)[O-])cc2S(=O)(=O)NC(=O)NC(C)(C)C)ccc1Br subject_of_test="UniProtKB P21731" value_units=% experimental_value=25

[P] Cc1ccc(Nc2ccc([N+](=O)[O-])cc2S(=O)(=O)NC(=O)NC2CCCCC2)cc1
[Q] Cc1ccc(Oc2ccc([N+](=O)[O-])cc2S(=O)(=O)NC(=O)NC2CCCCC2)cc1
Please indicate which entry, P or Q , has the lower recorded Activity value. // caller expects the label of the chosen entry P
